Assay: clinical plasma pharmacokinetics
Type: in vivo, human
Settings: human, plasma, oral, 25 mg, t½, ss, Range, Steady state, 25 mg BD, N=6

Smiles: CNC(=O)c1cccc(-c2ccc3c(N4CCOC[C@@H]4C)nc(N4CCOC[C@@H]4C)nc3n2)c1
half-life: 1.34 to 4.06 h

---

Experiment: clinical plasma pharmacokinetics
Format: in vivo, human
Conditions: human, plasma, oral, 25 mg, AUC, Range, Single dose, N=6

Smiles: CNC(=O)c1cccc(-c2ccc3c(N4CCOC[C@@H]4C)nc(N4CCOC[C@@H]4C)nc3n2)c1
AUC: 883 to 2730 ng·h/mL

---

Assay: clinical plasma pharmacokinetics
Type: in vivo, human
Conditions: human, plasma, oral, 25 mg, AUCss, Range, Steady state, 25 mg BD, N=6
Value kind: AUC

Compound: CNC(=O)c1cccc(-c2ccc3c(N4CCOC[C@@H]4C)nc(N4CCOC[C@@H]4C)nc3n2)c1 [AZD2014]
Observed measurement: 1000 to 6560 ng·h/mL

---

Assay: clinical plasma pharmacokinetics
Format: in vivo, human
Conditions: human, plasma, oral, 100 mg, Cmax, Range, Single dose, N=4
Value kind: Cmax

Smiles: CNC(=O)c1cccc(-c2ccc3c(N4CCOC[C@@H]4C)nc(N4CCOC[C@@H]4C)nc3n2)c1
Observed measurement: 1410 to 5050 ng/mL

---

Assay: clinical plasma pharmacokinetics
Assay type: in vivo, human
Conditions: human, plasma, oral, 100 mg, AUC, Gmean, Single dose, N=4

Smiles: CNC(=O)c1cccc(-c2ccc3c(N4CCOC[C@@H]4C)nc(N4CCOC[C@@H]4C)nc3n2)c1
Result unit: ng·h/mL
AUC: 9670

---

Assay: clinical plasma pharmacokinetics
Type: in vivo, human
Conditions: human, plasma, oral, 25 mg, t½, Mean, Single dose, N=6

Compound: CNC(=O)c1cccc(-c2ccc3c(N4CCOC[C@@H]4C)nc(N4CCOC[C@@H]4C)nc3n2)c1 [AZD2014]
Result unit: h
half-life: 2.96

---

Assay: clinical plasma pharmacokinetics
Format: in vivo, human
Details: human, plasma, oral, 50 mg, Cmax, Range, Single dose, N=27
Value kind: Cmax

Smiles: CNC(=O)c1cccc(-c2ccc3c(N4CCOC[C@@H]4C)nc(N4CCOC[C@@H]4C)nc3n2)c1
Value kind: Cmax
Observed measurement: 234 to 2840 ng/mL

---

Assay: clinical plasma pharmacokinetics
Format: in vivo, human
Conditions: human, plasma, oral, 70 mg, t½, ss, Range, Steady state, 70 mg BD, N=2
Value kind: half-life

Smiles: CNC(=O)c1cccc(-c2ccc3c(N4CCOC[C@@H]4C)nc(N4CCOC[C@@H]4C)nc3n2)c1
Observed measurement: 3.63 to 4.23 h

---

Experiment: clinical plasma pharmacokinetics
Format: in vivo, human
Conditions: human, plasma, oral, 50 mg, AUCss, Gmean, Steady state, 50 mg BD, N=37
Value kind: AUC (µg·h/mL)

Smiles: CNC(=O)c1cccc(-c2ccc3c(N4CCOC[C@@H]4C)nc(N4CCOC[C@@H]4C)nc3n2)c1
Value kind: AUC
Observed measurement: 6.69

---

Assay: clinical plasma pharmacokinetics
Type: in vivo, human
Conditions: human, plasma, oral, 100 mg, t½, Range, Single dose, N=4

Compound: CNC(=O)c1cccc(-c2ccc3c(N4CCOC[C@@H]4C)nc(N4CCOC[C@@H]4C)nc3n2)c1 [AZD2014]
half-life: 0.82 to 6.49 h
